I'd appreciate it if you could supply self-splicing fitness (ln) values for the items below.
# assayName: self-splicing fitness, log relative to wild type (ln ratio); higher = more splicing; Tetrahymena group I intron in knt gene, E. coli kanamycin selection, DiMSum; sequences stand for … in CUCUCU…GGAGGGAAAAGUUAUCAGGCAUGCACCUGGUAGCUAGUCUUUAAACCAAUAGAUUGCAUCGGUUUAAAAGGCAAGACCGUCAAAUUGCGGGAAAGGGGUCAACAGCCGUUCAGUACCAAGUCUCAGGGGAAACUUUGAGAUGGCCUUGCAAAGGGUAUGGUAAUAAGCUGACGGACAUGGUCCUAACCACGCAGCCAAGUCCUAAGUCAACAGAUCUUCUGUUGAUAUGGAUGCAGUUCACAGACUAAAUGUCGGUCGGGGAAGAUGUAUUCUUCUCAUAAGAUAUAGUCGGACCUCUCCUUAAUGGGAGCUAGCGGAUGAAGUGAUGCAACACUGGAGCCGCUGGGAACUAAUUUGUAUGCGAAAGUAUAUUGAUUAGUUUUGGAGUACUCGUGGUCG;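 also: selection with 25 µg/mL kanamycin versus none on LB agar overnight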
# conditionContext: 30 °C
Give only the figure.

Item GGCGAGCAAUAUUACGAUUU has what recorded self-splicing fitness (ln)?
-1.09

Try CUUUAGCAAUAUUACGCAUA next.
-3.68

Try CCAGAGCAAUAUUACGCUAA next.
-2.74

Try UUGCAGCAAUAUUACGUACC next.
-3.54

Try UGAAAGCAAUAUUACGGGGC next.
-3.89

Try UCGUAGCAAUAUUACGGCGA next.
-1.85

Try ACCCAGCAAUAUUACGCGGG next.
-3.6

Try GGUAAGCAAUAUUACGGGAU next.
-2.82

Try AUCGAGCAAUAUUACGCGUG next.
-2.55

Try UCGUAGCAAUAUUACGGGUC next.
-3.02

Try AAGUAGCAAUAUUACGAUUG next.
-3.24

Try CGUAAGCAAUAUUACGGCCA next.
-2.86

Try UCUAAGCAAUAUUACGCCCU next.
-2.09

Try CUGAAGCAAUAUUACGCCAU next.
-3.41

Try UUGAAGCAAUAUUACGAAUC next.
-3.58

Try CCGCAGCAAUAUUACGCCUA next.
-3.92

* * *

# assayName: self-splicing fitness, log relative to wild type (ln ratio); higher = more splicing; Tetrahymena group I intron in knt gene, E. coli kanamycin selection, DiMSum; sequences stand for … in CUCUCU…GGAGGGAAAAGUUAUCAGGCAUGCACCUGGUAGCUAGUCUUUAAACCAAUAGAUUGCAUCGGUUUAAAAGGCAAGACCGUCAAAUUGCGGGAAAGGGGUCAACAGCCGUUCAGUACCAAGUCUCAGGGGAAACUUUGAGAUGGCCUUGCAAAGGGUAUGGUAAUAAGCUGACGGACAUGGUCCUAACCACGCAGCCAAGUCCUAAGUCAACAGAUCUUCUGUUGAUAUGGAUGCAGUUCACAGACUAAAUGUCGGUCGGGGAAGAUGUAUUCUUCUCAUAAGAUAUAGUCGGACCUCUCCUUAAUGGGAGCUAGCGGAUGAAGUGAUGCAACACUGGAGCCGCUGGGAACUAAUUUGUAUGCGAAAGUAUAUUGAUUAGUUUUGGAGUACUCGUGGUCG
# conditionContext: 37 °C
Classification field: t = self-splicing fitness (ln) at or over -2; f = self-splicing fitness (ln) under -2.

Tell me whether self-splicing fitness (ln) is at least -2 here: GAUUAGCAAUAUUACGAUGG
t

Try GGGAAGCAAUAUUACGCAGG next.
f

Try AGCUAGCAAUAUUACGAACA next.
t

Try UUUCAGCAAUAUUACGUGCC next.
t

Try CGAAAGCAAUAUUACGUGGU next.
f

Try ACCCAGCAAUAUUACGAACG next.
t

Try AAUUAGCAAUAUUACGGUGU next.
t

Try GUCAAGCAAUAUUACGAUAA next.
t

Try ACUCAGCAAUAUUACGGCUG next.
f

Try GCUCAGCAAUAUUACGUUGC next.
t

Try CAGAAGCAAUAUUACGCGGG next.
f

Try AGAUAGCAAUAUUACGCGGU next.
f

Try ACUGAGCAAUAUUACGGCCU next.
f

Try GAGUAGCAAUAUUACGAAGG next.
f

Try GAUCAGCAAUAUUACGAACC next.
t

Try AGACAGCAAUAUUACGACAC next.
t

Try AUGAAGCAAUAUUACGUCGA next.
t

Try UUCGAGCAAUAUUACGUCCU next.
f

Try AUCCAGCAAUAUUACGAACU next.
t

Try GUGGAGCAAUAUUACGCCGA next.
t

Try UCGGAGCAAUAUUACGCUUA next.
t

Try UCCCAGCAAUAUUACGGAGA next.
t

Try UACCAGCAAUAUUACGGAGG next.
t

Try CGUUAGCAAUAUUACGUGCG next.
f

Try AUAAAGCAAUAUUACGGUCG next.
t

Try UUCUAGCAAUAUUACGGGAA next.
f

Try GUACAGCAAUAUUACGGGUU next.
f

Try AGCCAGCAAUAUUACGACUG next.
t

Try AUACAGCAAUAUUACGAUGC next.
t

Try GGCAAGCAAUAUUACGACCU next.
t

Try CAUGAGCAAUAUUACGUUUA next.
f
